target: Kj12B-CDDshort R1565E peptide (Xenorhabdus stockiae KJ12.1, R1565E (stands in the printed letters)); assay: ITC
Quantity Name: Kd

Data request: Report Kd for Kj12C-^NDD (N-terminal docking domain of Kj12C) (domain or fragment) GIDAAQIVDEALEQGITLFVVNNRLQYETSRDSIPTELLNKWKQHKQELIDFLNQLDSEEQTK please.
Data returned: > 100 µM

src = paper PMC6195595
